# SUBJECT_OF_TEST: T1, Bdf1 bromodomain 2 (GST-tagged, WT) (Saccharomyces cerevisiae (strain ATCC …, UniProt P35817))
# T1 chain: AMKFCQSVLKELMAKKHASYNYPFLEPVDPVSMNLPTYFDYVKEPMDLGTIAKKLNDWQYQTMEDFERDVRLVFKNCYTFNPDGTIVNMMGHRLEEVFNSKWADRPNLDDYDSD
# ASSAY_NAME: histone peptide array probed with recombinant GST-bromodomain, signal normalised to myc peptide control
Non-standard residues stand in square brackets, D forms with d. No end group written: not given here. Arg(Me2s) = CN=C(NC)NCCC[C@H](N)C(=O)O; pT = C[C@@H](OP(=O)(O)O)[C@H](N)C(=O)O; Lys(Me2) = CN(C)CCCC[C@H](N)C(=O)O; Me2s = symmetric dimethyl (on Arg); pS = N[C@@H](COP(=O)(O)O)C(=O)O; Me3 = trimethyl (on Lys)
Please note: T applies when binding score is 0.008 or greater, and F applies otherwise.

Hello, I need to know if SGRGKGGKGLGKGGAKRHR (pS G R G K G G K G L G K G G A K R H R) has measured binding score not below 0.008. Thanks!
F

Follow-up item: ARTKQTA[Arg(Me2s)][Lys(Me2)]S[pT]GGKAPRKQ
T

Follow-up item: ARTKQTARKSTGGKAPRKQ (A Rme2s T Kme3 Q T A Rme2s Kac S T G G K A P R K Q)
T

Follow-up item: ARTKQTARKSTGGKAPRKQ (A R T Kac Q T A Rme2a Kme1 S T G G K A P R K Q)
F

Follow-up item: RKSAPATGGVKKPHRYRPG (R K S A P A T G G V Kme3 K P H R Y R P G)
F

Follow-up item: SGRGKGGKGLGKGGAKRHR (S G R G K G G Kac G L G Kac G G A K R H R)
T

Follow-up item: ARTKQTA[Arg(Me2s)]K(Me)S[pT]GGKAPRKQ
T

Follow-up item: [pS]GRGK(Ac)QGGK(Ac)ARAK(Ac)AKSRSS [H2a 1-19]
T

Follow-up item: ARTK(Me3)QTAR(Me2s)K(Ac)STGGKAPRKQ
T

Follow-up item: ARTKQTARKSTGGKAPRKQ (A Rme2a T Kme2 Q T A Rme2s Kme2 S T G G K A P R K Q)
F

Follow-up item: PDPAK(Ac)SAPAPKKG[pS]K(Ac)KAVT [H2B 1-19]
T

Follow-up item: RKSAPATGGVKKPHRYRPG (R K S A P A T G G V Kme1 K P H R Y R P G)
F
